- testedTarget: T1, chimeric human/cynomolgus monkey CD89-IV (human/cynomolgus monkey chimera, UniProt P24071 22-287)
- T1 construct: also called ΔArg97-Gly121 human EC1-CD89
- T1 chain: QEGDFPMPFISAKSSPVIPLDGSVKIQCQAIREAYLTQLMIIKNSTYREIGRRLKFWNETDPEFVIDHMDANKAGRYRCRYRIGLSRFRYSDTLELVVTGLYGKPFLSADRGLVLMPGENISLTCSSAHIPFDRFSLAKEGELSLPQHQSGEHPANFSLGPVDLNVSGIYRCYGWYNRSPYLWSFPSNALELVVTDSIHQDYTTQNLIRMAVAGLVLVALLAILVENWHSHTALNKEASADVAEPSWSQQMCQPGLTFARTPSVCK
- measurementDescription: FACS, transiently transfected HEK293F, 10 ug/mL; ++ strong, + intermediate, -/+ weak
metric: binding result

binder | observedMeasurement
mouse anti-human CD89-specific antibody 16D6 (antibody, mouse IgG1, V domains shown, also called 16D16) VH: QVQLQQSGAELMKPGASVKISCKATGYTFSTYWIEWVKQRPGHGLEWIGEILPGSGSANYNEKFKGKATFTADTSSNTAYMQLSSLTFEDSAVYYCAKGFGSPYYYAMDYWGQGTSVTVSS VL: EIVLTQSPALMAASPGEKVTITCSVSSSISSSNLHWYQQKSETSPKPWIYGTSKLASGVPVRFSGSGSGTSYSLTISNMEAEDAATYYCQQWSSFPLTFGGGTKLEIK | binds
